Below, each entry is listed with its recorded inhibition of growth at 10 µM.
Test system: SF-268
Assay: Growth inhibition of human SF268 cells at 10 uM incubated for 48 hrs by sulforhodamine B assay relative to control
Assay type: functional
Conditions: SF-268, 48 h, read-out: GI
Dear colleague, please return just the value in %, with no unit written.

Known results for compounds:
C/C(=N\O)c1ccc(NC(=O)Cn2nc(-c3ccc(Cl)cc3)nc2N)cc1 10.5
COc1ccc(-c2nc3sc(-c4ccc(Cl)cc4)cn3n2)cc1 34.9
COc1cc(-c2nc3sc(-c4ccccc4)cn3n2)cc(OC)c1OC 9
COc1ccc(-c2nc3sc(-c4ccccc4)cn3n2)cc1 28
COc1cc(-c2nc(N)n(CC(=O)Nc3ccc(/C(C)=N\O)cc3)n2)cc(OC)c1OC 6.49

What inhibition of growth at 10 µM value was documented for this compound, c1ccc(-c2nc3sc(-c4ccccc4)cn3n2)cc1 ? 7

# inhibition of growth at 10 µM lookup, item Clc1ccc(-c2cn3nc(-c4ccccc4)nc3s2)cc1 20

###

Property: inhibition of growth at 10 µM; scope: individual compounds
System: SNB-19
Test: Growth inhibition of human SNB19 cells at 10 uM incubated for 48 hrs by sulforhodamine B assay relative to control
Assay type: functional
Details: SNB-19, 48 h, read-out: GI

C/C(=N/O)c1ccc(NC(=O)Cn2nc(-c3ccccc3)nc2N)cc1 3.56%

Any idea what its inhibition of growth at 10 µM is? The compound is COc1cc(-c2nc3sc(-c4ccccc4)cn3n2)cc(OC)c1OC 10%

If you can, please state the reported inhibition of growth at 10 µM value of CC(=O)c1ccc(NC(=O)Cn2nc(-c3ccc(Cl)cc3)nc2N)cc1 . 8.53%

Look up inhibition of growth at 10 µM: CC(=O)c1ccc(NC(=O)Cn2nc(C(F)(F)F)nc2N)cc1 4.37%

Can you look up the measured inhibition of growth at 10 µM of c1ccc(-c2nc3sc(-c4ccccc4)cn3n2)cc1 for me? 11%

###

Measured inhibition of growth at 10 µM of individual entries
System: UO-31
Assay: Growth inhibition of human UO31 cells at 10 uM incubated for 48 hrs by sulforhodamine B assay relative to control
Assay type: functional
Conditions: UO-31, 48 h, read-out: GI
// note: answer is a bare numeric in %

C/C(=N/O)c1ccc(NC(=O)Cn2nc(-c3ccccc3)nc2N)cc1 15.4
CC(=O)c1ccc(NC(=O)Cn2nc(-c3ccc(Cl)cc3)nc2N)cc1 20.6
COc1ccc(-c2nc3sc(-c4ccc(Cl)cc4)cn3n2)cc1 -7.46
C/C(=N/O)c1ccc(NC(=O)Cn2nc(C(F)(F)F)nc2N)cc1 15.1
COc1cc(-c2nc(N)n(CC(=O)Nc3ccc(/C(C)=N\O)cc3)n2)cc(OC)c1OC 20.5

Any idea what its inhibition of growth at 10 µM is? The compound is Clc1ccc(-c2cn3nc(-c4ccccc4)nc3s2)cc1 40

Quick check: inhibition of growth at 10 µM of COc1cc(-c2nc3sc(-c4ccccc4)cn3n2)cc(OC)c1OC ? 43

Need inhibition of growth at 10 µM, item CC(=O)c1ccc(NC(=O)Cn2nc(C(F)(F)F)nc2N)cc1 13.7

Entry COc1ccc(-c2nc3sc(-c4ccccc4)cn3n2)cc1 has what inhibition of growth at 10 µM? 38

Requested read-out: inhibition of growth at 10 µM. Entry: C/C(=N\O)c1ccc(NC(=O)Cn2nc(-c3ccc(Cl)cc3)nc2N)cc1 34

// lookup inhibition of growth at 10 µM for c1ccc(-c2nc3sc(-c4ccccc4)cn3n2)cc1 53
